target: LRRK2 wild type (recombinant human, catalytic domain amino acids 970-2527, GST-tagged) (Homo sapiens); construct: The wild type used was recombinant human, catalytic domain (amino acids 970-2527) GST-tagged, expressed in insect cells; GST; assay: LRRK2 wild type protein kinase assay ([γ-33P] ATP, peptide substrate […]), IC50; settings: LRRK2 (variant not given); read-out: Potency score, LRRK2 IC50
Sequence (Q5S007 970-2527): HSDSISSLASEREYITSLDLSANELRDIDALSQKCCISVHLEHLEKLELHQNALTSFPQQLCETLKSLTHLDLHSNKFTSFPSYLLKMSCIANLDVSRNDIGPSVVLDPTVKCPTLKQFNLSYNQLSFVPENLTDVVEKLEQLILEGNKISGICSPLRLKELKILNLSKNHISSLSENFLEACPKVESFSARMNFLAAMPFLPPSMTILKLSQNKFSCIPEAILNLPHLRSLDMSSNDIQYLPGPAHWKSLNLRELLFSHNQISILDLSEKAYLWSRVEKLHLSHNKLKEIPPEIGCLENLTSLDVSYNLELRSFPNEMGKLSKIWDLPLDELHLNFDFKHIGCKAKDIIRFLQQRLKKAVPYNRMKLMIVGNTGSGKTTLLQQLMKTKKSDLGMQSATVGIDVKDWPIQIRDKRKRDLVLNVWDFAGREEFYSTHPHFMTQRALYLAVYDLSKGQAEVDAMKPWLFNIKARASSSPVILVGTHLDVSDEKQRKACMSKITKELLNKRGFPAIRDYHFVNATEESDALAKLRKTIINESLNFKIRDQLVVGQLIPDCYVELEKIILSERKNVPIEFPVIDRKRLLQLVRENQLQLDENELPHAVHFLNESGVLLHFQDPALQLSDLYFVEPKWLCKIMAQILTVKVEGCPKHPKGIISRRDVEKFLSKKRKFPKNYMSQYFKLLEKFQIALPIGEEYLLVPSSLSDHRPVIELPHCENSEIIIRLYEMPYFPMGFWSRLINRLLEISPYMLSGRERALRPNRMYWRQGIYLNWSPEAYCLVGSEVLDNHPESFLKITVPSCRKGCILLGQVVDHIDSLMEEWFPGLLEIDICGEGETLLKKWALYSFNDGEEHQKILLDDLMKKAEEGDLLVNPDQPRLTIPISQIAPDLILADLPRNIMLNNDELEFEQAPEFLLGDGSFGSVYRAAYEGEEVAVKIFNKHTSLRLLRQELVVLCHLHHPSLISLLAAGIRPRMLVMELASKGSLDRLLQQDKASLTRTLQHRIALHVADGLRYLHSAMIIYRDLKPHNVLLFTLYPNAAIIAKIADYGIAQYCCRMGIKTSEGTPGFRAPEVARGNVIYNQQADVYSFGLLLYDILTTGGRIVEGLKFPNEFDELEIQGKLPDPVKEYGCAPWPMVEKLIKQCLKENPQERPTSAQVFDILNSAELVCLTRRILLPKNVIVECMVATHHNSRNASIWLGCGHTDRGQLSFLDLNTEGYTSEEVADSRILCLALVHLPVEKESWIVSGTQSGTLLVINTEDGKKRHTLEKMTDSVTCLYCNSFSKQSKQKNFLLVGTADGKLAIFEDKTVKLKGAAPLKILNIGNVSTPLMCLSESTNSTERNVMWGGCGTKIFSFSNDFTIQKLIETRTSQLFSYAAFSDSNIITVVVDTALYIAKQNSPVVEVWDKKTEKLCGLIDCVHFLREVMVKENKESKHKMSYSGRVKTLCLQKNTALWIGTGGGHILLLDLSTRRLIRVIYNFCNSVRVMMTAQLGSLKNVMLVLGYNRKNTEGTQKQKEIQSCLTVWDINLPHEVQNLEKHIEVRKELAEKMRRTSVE
pIC50: −log10 of the molar value.
Exercise: state measured pIC50 for each of the compounds provided.

For orientation, consider the following solved cases.
• Cn1ncnc1C1CCCN(C(=O)CCc2n[nH]c3ccnc(NC4CCCCC4)c23)C1 (stereo not shown) = 6.00 to 7.00
• Cc1n[nH]c2ccnc(OC3CCCC3)c12 = > 7.00
• CCC(C)Nc1nccc2[nH]nc(C)c12 (stereo not shown) = 6.00 to 7.00
• COC1CCCN(C(=O)CCc2n[nH]c3ccnc(NC4CCCCC4)c23)C1 (stereo not shown) = 6.00 to 7.00

// batch mode: one pIC50 value per listed entry
1. Cc1n[nH]c2ccnc(NCCC(C)C)c12
2. Cc1n[nH]c2ccnc(-c3ccccc3F)c12

Found:
1. 5.00 to 6.00
2. 6.00 to 7.00

// batch mode: one pIC50 value per listed entry
1. c1cc2[nH]nc(-c3ccc(N4CCOCC4)cc3)c2c(NC2CCCCC2)n1
2. Cc1n[nH]c2ccnc(O[C@@H](C)Cc3ccccc3)c12
3. OCCCc1n[nH]c2ccnc(NC3CCCCC3)c12
4. CC(=O)Nc1ccc(C(=O)Nc2ccc(CCc3n[nH]c4ccnc(NC5CCCCC5)c34)cc2)cc1

Found:
1: 6.00 to 7.00; 2: 6.00 to 7.00; 3: 5.00 to 6.00; 4: > 7.00
